Target: Eukaryotic translation initiation factor 4E (Homo sapiens)
Sequence (P06730 whole entry): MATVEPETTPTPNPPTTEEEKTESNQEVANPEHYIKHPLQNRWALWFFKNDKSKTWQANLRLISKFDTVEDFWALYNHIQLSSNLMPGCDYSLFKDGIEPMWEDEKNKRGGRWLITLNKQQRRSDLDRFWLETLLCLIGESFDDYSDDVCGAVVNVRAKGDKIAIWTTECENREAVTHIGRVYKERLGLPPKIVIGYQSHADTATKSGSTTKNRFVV
Assay: Inhibition of eIF4E phosphorylation in HEK293 cells incubated for 60 mins by Western blot assay
readout.label: IC50
Number first, unit second: that is the form wanted.

Given the compound Nc1ncnc2[nH]nc(Nc3ccc(F)cc3)c12 , what is its reported IC50?
3 µM

###

Molecular target: MAP kinase-interacting serine/threonine-protein kinase 1 (Homo sapiens, UniProt Q9BUB5)
Sequence (Q9BUB5 whole entry): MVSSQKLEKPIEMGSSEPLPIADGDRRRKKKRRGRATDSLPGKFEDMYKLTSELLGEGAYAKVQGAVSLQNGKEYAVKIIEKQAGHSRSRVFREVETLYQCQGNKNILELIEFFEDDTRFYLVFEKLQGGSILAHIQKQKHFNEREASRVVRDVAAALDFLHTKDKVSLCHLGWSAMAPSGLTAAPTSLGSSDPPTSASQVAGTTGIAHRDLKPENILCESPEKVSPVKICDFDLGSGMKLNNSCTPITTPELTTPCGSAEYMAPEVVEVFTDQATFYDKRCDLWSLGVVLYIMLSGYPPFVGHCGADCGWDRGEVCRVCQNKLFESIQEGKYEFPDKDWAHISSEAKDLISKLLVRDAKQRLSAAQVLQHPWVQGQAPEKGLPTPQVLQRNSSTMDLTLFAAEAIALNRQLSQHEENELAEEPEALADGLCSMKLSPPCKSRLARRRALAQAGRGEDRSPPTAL
readout.label: pKi
Would you please state pKi, meaning minus log10 of the concentration in mol/L, as a bare number?

Request: pKi, test system MAP kinase-interacting serine/threonine-protein kinase 1 (Homo sapiens, UniProt Q9BUB5), entry Cc1cc(Nc2ncnc3sc(C(=O)O)c(C)c23)c(=O)n(C)c1
6.52

The reported measurements were obtained from ChEMBL document CHEMBL5096177.
